Experimental Details: Pharmacokinetic evaluation in mice after intragastric administration (plasma concentration by LC/MS/MS)
Assay type: in vivo
Cond: mouse, Balb/C female mice, single PO 10 mg/kg
Exercise: for every item that follows, state its recorded AUC.
Numbers only, in ng·h/mL.

{"Compound": "O=c1[nH]cc(-c2cc([C@H]3C[C@@H]3c3ccccc3)c(Cl)nn2)c(=O)[nH]1 [Compound 57]", "AUC, ng·h/mL": 10700}
{"Compound": "C=C[C@H]1C[C@@H]1c1cc(-c2c[nH]c(=O)[nH]c2=O)nnc1Cl [Compound 13]", "AUC, ng·h/mL": 16900}

Note: attention shifts to another entry.
What value of AUC has been recorded for this entry: Cc1nnc(-c2c[nH]c(=O)[nH]c2=O)cc1[C@H]1C[C@@H]1C(C)C [Compound D1, reference compound]
677
